- Tested on: B. thailandensis ATCC 700388
- PROCEDURE DETAILS: microbe, parasite or virus in culture
- Assay type: cell-based
- CONDITION PARAMETERS: Burkholderia thailandensis, ATCC700388, read-out: Minimum inhibitory concentration (MIC), B. thailandensis ATCC 700388
PROPERTY LABEL: MIC

Please review the following examples before continuing.
query: Request the reported MIC associated with O=C(NCCCN1CCN(C(=O)NC(C(=O)N[C@H]2Cc3ccc(F)c(C(=O)O)c3OB2O)c2cc(F)c(O)c(O)c2Cl)C(=O)C1=O)c1ccc(O)cc1 (stereo partly shown)
result: < 1 µg/mL

query: Which MIC value belongs to O=C(NCCCN1CCN(C(=O)NC(C(=O)N[C@H]2Cc3ccc(F)c(C(=O)O)c3OB2O)c2cc(F)c(O)c(O)c2Cl)C(=O)C1=O)c1cc(O)ccc1Cl (stereo partly shown) ?
result: 2 to 4 µg/mL

query: What value of measured MIC is listed for CN(CCN1CCN(C(=O)N[C@@H](C(=O)N[C@H]2Cc3ccc(F)c(C(=O)O)c3OB2O)c2cc(F)c(O)c(O)c2Cl)C(=O)C1=O)Cc1cccnc1 ?
result: < 1 µg/mL

query: Looking for the measured MIC of O=C(NCCCN1CCN(C(=O)NC(C(=O)N[C@H]2Cc3ccc(F)c(C(=O)O)c3OB2O)c2cc(F)c(O)c(O)c2Cl)C(=O)C1=O)c1ccncc1 (stereo partly shown) , can you help?
result: < 1 µg/mL

query: Quick check: MIC of O=C(O)c1c(F)ccc2c1OB(O)[C@@H](NC(=O)[C@H](NC(=O)N1CCN(C3CCN(C(=O)c4cccc(O)c4Cl)CC3)C1=O)c1cc(F)c(O)c(O)c1Cl)C2 (single isomer, unassigned) ?
result: < 1 µg/mL

query: If you can, please state the reported MIC value of O=C(O)c1c(F)ccc2c1OB(O)[C@@H](NC(=O)[C@H](NC(=O)N1CCN(C3CCN(C(=O)c4cc(O)c(F)c(O)c4)CC3)C1=O)c1cc(F)c(O)c(O)c1Cl)C2 (single isomer, unassigned) .
result: < 1 µg/mL

Your task in this section: give MIC for each listed record.
1. O=C(O)c1c(F)ccc2c1OB(O)[C@@H](NC(=O)C(NC(=O)N1CCN(C3CCN(S(=O)(=O)c4cccc(O)c4)CC3)C(=O)C1=O)c1cc(F)c(O)c(O)c1Cl)C2 (stereo partly shown)
2. O=C(O)c1c(F)ccc2c1OB(O)[C@@H](NC(=O)C(NC(=O)N1CCN(C3CCN(C(=O)Nc4cc(O)c(F)cc4Cl)CC3)C(=O)C1=O)c1cc(F)c(O)c(O)c1Cl)C2 (stereo partly shown)
3. O=C(O)c1c(F)ccc2c1OB(O)[C@@H](NC(=O)[C@H](NC(=O)N1CCN(C3CCN(C(=O)c4c(F)ccc(O)c4Cl)CC3)C1=O)c1cc(F)c(O)c(O)c1Cl)C2 (single isomer, unassigned)
4. Cc1cc(C(=O)NCCCN2CCN(C(=O)NC(C(=O)N[C@H]3Cc4ccc(F)c(C(=O)O)c4OB3O)c3cc(F)c(O)c(O)c3Cl)C(=O)C2=O)c(F)cn1 (stereo partly shown)

result:
1: > 128 µg/mL; 2: 32 to 64 µg/mL; 3: < 1 µg/mL; 4: 2 to 4 µg/mL
